experiment: Displacement of [3H]mesulergine from pig cortex 5-hydroxytryptamine 1C receptor
pIC50: −log10 of the molar value.
Record True whenever pIC50 is at 6 or higher; record False when lower.

# SMILES TEXT, LABEL VALUE
records = [
    ("CS(=O)(=O)Nc1ccc(Cc2noc(-c3ccc4[nH]cc(CCN)c4c3)n2)cc1", "True"),
    ("NCCc1c[nH]c2ccc(-c3nc(Cc4ccccc4)no3)cc12", "False"),
    ("CC(=O)Nc1ccc(Cc2noc(-c3ccc4[nH]cc(CCN)c4c3)n2)cc1", "False"),
]

Prompt: I'd appreciate it if you could say whether `NCCc1c[nH]c2ccc(Cc3nc(N)no3)cc12` has pIC50 at least equal to 6.
Completion: False

Prompt: I'd appreciate it if you could say whether `CN(C)CCc1c[nH]c2ccc(Cc3nc(N)ns3)cc12` has pIC50 at least equal to 6.
Completion: True

* * *

In this section we review reported IC50 values for a set of compounds.
assay: Displacement of [3H]mesulergine from pig cortex 5-hydroxytryptamine 1C receptor
Give the value, in units of nM, as a plain number.

Use the examples below as a reference point.
# SMILES TEXT, IC50 (nM)
records = [
    ("NCCc1c[nH]c2ccc(CCc3nc(Cc4ccccc4)no3)cc12", 794),
    ("COc1ccc(Cc2noc(-c3ccc4[nH]cc(CCN)c4c3)n2)cc1", 794),
    ("Cc1noc(Cc2ccc3[nH]cc(CCN)c3c2)n1", 1260),
]

Attention now turns to another entry.
Prompt: Sample `Cc1noc(Cc2ccc3[nH]cc(CCN(C)C)c3c2)n1` — what was its IC50?
Completion: 1000

* * *

assay: Displacement of [3H]mesulergine from pig cortex 5-hydroxytryptamine 1C receptor
In this section we review reported pIC50 values for a set of compounds.
Keep in mind that pIC50 stands for -log10 of concentration in molar terms.

Use the examples below as a reference point.
# SMILES TEXT, pIC50
records = [
    ("CN(C)CCc1c[nH]c2ccc(CCc3nc(N)no3)cc12", 6.00),
    ("Cc1noc(-c2ccc3[nH]cc(CCN)c3c2)n1", 5.90),
]

Prompt: Sample `NCCc1c[nH]c2ccc(-c3nc(C4CC4)no3)cc12` — what was its pIC50?
Completion: 6.00
